Tested on: human neuroblastoma SH-SY5Y cell line
PROTOCOL_SUMMARY: MTS cytotoxicity of curcumin derivatives (dose-response)
Format: cell-based
REPORTED_CONDITIONS: Homo sapiens, MTS, 0–800 μM, 24 hours, n = 3, read-out: IC50 (cell viability)
QUANTITY_NAME: IC50 (µM)
The reply should be a number in µM, with the unit left off.

Ask: Give IC50 for the following compound: O=C(/C=C/c1ccccc1Cl)C(=O)/C=C/c1ccccc1Cl
Result: 54.5

Ask: Give IC50 for the following compound: CN(C)c1ccc(/C=C/c2nnc(/C=C/c3ccc(N(C)C)cc3)o2)cc1
Result: 110

Ask: Give IC50 for the following compound: CC(=O)/C=C/c1ccc(C)cc1
Result: 124

Ask: Give IC50 for the following compound: O=C(/C=C/c1ccc(F)cc1)C(=O)/C=C/c1ccc(F)cc1
Result: 56.1
